biological target: CDK1-NanoLuc fusion with CCNB1 in 293T or 293 cells (Homo sapiens, UniProt P06493); construct: host or cells: 293T (ATCC CRL-3216) or 293 (ATCC CRL-1573); experiment: NanoBRET Target Engagement (TE) Intracellular Kinase Assay, CDK1/CCNB1; format: cell-based; details: NanoBRET TE intracellular kinase assay, 2-hour incubation, read-out: NanoBRET-CDK1/B1 IC50
Sequence (P06493 whole entry, the tested form may be a part): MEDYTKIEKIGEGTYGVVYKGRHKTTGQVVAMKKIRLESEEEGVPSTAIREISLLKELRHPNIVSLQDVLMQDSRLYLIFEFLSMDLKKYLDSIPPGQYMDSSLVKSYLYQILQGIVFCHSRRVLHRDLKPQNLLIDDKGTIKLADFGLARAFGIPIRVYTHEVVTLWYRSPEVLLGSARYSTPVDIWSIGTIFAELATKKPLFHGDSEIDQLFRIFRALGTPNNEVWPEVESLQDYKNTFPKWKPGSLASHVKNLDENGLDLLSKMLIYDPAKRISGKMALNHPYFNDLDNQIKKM
Sequence (P14635 whole entry partner, the tested form may be a part): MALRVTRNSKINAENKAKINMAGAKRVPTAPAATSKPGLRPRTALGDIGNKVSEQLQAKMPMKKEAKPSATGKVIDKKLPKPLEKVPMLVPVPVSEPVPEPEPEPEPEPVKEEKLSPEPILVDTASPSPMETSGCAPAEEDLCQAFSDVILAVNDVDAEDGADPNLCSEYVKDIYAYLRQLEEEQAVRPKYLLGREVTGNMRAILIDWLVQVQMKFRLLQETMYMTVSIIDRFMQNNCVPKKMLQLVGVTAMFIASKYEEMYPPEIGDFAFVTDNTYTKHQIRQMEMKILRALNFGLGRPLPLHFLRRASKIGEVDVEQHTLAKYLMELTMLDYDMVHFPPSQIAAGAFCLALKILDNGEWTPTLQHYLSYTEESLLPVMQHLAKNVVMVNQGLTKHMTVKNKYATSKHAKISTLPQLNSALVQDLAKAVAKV
pIC50: −log10 of the molar value.
Measured Endpoint: pIC50

Use these answered entries as a reference point.
[[record]]
compound = "COc1cc(O)c(C=O)c(OCC(=O)Nc2cc([C@H]3CC[C@@H](OC(=O)N4CCCC45CC5)C3)[nH]n2)c1 [Compound 232]"
measured_target = "CDK1-NanoLuc fusion with CCNB1 in 293T or 293 cells (Homo sapiens, UniProt P06493)"
test_result = 8.32

[[record]]
compound = "CC(C)NC(=O)O[C@@H]1CC[C@H](c2cc(NC(=O)C3C[C@H]3c3cccc(O)c3C=O)n[nH]2)C1 (stereo in doubt) [Compound 9]"
measured_target = "CDK1-NanoLuc fusion with CCNB1 in 293T or 293 cells (Homo sapiens, UniProt P06493)"
test_result = 7.30

[[record]]
compound = "COc1cc(O)c(C=O)c([C@@H]2C[C@H]2C(=O)Nc2cc([C@H]3CC[C@@H](OC(=O)NC(C)C)C3)[nH]n2)c1 (mixture of isomers) [Compound 89]"
measured_target = "CDK1-NanoLuc fusion with CCNB1 in 293T or 293 cells (Homo sapiens, UniProt P06493)"
test_result = 7.95

[[record]]
compound = "CC(C)NC(=O)O[C@@H]1CC[C@H](c2cc(NC(=O)C3Cc4ccc(O)c(C=O)c4O3)n[nH]2)C1 (some centres unmarked) [Compound 62]"
measured_target = "CDK1-NanoLuc fusion with CCNB1 in 293T or 293 cells (Homo sapiens, UniProt P06493)"
test_result = 6.57

[[record]]
compound = "CC(C)NC(=O)O[C@@H]1CC[C@H](c2cc(NC(=O)CCc3cccc(O)c3C=O)n[nH]2)C1 [Compound 7]"
measured_target = "CDK1-NanoLuc fusion with CCNB1 in 293T or 293 cells (Homo sapiens, UniProt P06493)"
test_result = 6.56


a. CC(C)NC(=O)O[C@@H]1CC[C@H](c2cc(NC(=O)c3cc(-c4cccc(O)c4C=O)nn3C)n[nH]2)C1 [Compound 17, 2,2,2-trifluoroacetate]
b. CC(C)NC(=O)O[C@@H]1CC[C@H](c2cc(NC(=O)c3cc(C=O)c4[nH]ncc4c3)n[nH]2)C1 [Compound 40]
c. COc1cc(O)c(C=O)c(OCc2cc(C(=O)Nc3cc([C@H]4CC[C@@H](OC(=O)NC(C)C)C4)[nH]n3)n(C)n2)c1 [Compound 77]
Please give the order of these compounds when sorted by pIC50, largest value leading. Please list the labels in the order you were asked to rank them. c, a, b

A. COc1cc(O)c(C=O)c(OCC(=O)Nc2cc([C@@H]3CC[C@H](OC(=O)NC(C)C)C3)[nH]n2)c1 [Compound 247]
B. CC(C)NC(=O)O[C@@H]1CC[C@H](c2cc(NC(=O)c3cc(C(=O)Nc4ccccc4C=O)nn3C)n[nH]2)C1 [Compound 21]
C. CC(C)NC(=O)O[C@@H]1CC[C@H](c2cc(NC(=O)N3CC=C(c4cccc(O)c4C=O)C3)n[nH]2)C1 [Compound 78]
D. COc1cc(O)c(C=O)c(OCC(=O)Nc2cc([C@H]3CC[C@@H](OC(=O)N[C@H]4C[C@H]4F)C3)[nH]n2)c1 [Compound 132]
Please list these in order of increasing pIC50. Thank you! Please list the labels in the order you were asked to rank them. B, C, A, D
(B: 6.54, C: 6.85, A: 7.71, D: 7.97)

1. COCCNC(=O)O[C@@H]1CC[C@H](c2cc(NC(=O)COc3cc(OC)cc(O)c3C=O)n[nH]2)C1 [Compound 213]
2. CC(C)NC(=O)O[C@@H]1CC[C@H](c2cc(NC(=O)COc3cc(OC(F)F)cc(O)c3C=O)n[nH]2)C1 [Compound 100]
3. CC(C)NC(=O)O[C@@H]1CC[C@H](c2cc(NC(=O)COc3cc(C#N)cc(O)c3C=O)n[nH]2)C1 [Compound 47]
4. CCCNC(=O)O[C@H]1C[C@@H](c2cc(NC(=O)COc3cc(OC)cc(OC)c3C=O)n[nH]2)C1 [Compound 110]
5. COc1cccc(OCC(=O)Nc2cc([C@H]3CC[C@@H](OC(=O)NC4(C)CCC4)C3)[nH]n2)c1C=O [Compound 105]
Please give the order of these compounds when sorted by pIC50, largest value leading. Please list the labels in the order you were asked to rank them. 5, 4, 2, 1, 3

A. COc1cc(O)c(C=O)c(OCC(=O)Nc2cc([C@H]3CC[C@@H](OC(=O)N(C)N(C)C)C3)[nH]n2)c1 [Compound 172]
B. COCC1(NC(=O)O[C@@H]2CC[C@H](c3cc(NC(=O)COc4cc(OC)cc(O)c4C=O)n[nH]3)C2)CCC1 (stereo in doubt) [Compound 198]
API: POST /compare with A and B ; response names the item with higher pIC50. Write down the label of the entry you select. B
(B: 8.15, A: 7.60)
